Hello, the source for this data is PubChem BioAssay (NCI), in case you need it.

# System: CAKI-1 renal
# Test method notes: NCI-60 one-dose screen, 48 h (100 = growth as untreated, 0 = no growth, -100 = all killed)
# Experimental context: 10 µM unless noted
Compounds without any hit were thinned out: in the full panel of roughly 83,000, 20% have a hit.
Quantity kind: growth (%)
Numbers only, in %.

As a guide, the following entries are already answered.
Compound: COc1ccc(-c2cc(-c3ccc(N(C)C)cc3)nc(NC(=O)c3cccnc3)n2)cc1
Numeric value: 92.6
//
Compound: N#Cc1c(-c2ccc(F)cc2)cc(-c2cccc(Cl)c2)[nH]c1=O
Numeric value: 52.1
//
Compound: CCN(CC)CCN1C(=O)c2c(c(C)c3c(oc4cc(OC)ccc43)c2C)C1=O
Numeric value: 78.2
//
Compound: COc1ccc(CNc2c3ccccc3nc3ccccc23)cc1OC
Numeric value: 10.5
//
Compound: CN1CCN(c2ccc(Nc3ncc4[nH]c(=O)n(Cc5ccccc5N)c4n3)cc2)CC1
Numeric value: 66.4
//
Compound: COc1ccc2c(O)cc3c(c2c1)[C@H](CCl)CN3C(=O)c1cc2cc(NC(=O)CCN3CCOCC3)ccc2[se]1
Numeric value: -26.3
//
Compound: COC(=O)c1c(C(=O)OC)c2ccc3c4ncccc4ccc3n2c1C(=O)c1ccc(C)cc1
Numeric value: 83.9
//
Compound: C#CCOC(=O)C(N)CSSCC(N)C(=O)O (centres undefined)
Numeric value: 90.7

For the 7 compounds below, give their growth values.
1. CCNCCNc1c(C)c(-c2ccc(C(F)(F)F)cc2)c(C#N)c2nc3ccccc3n12
2. CCN(CC)CCOc1ccc(/C(=C(\C)Cc2ccc(OC)cc2)c2ccc(O)cc2)cc1
3. COc1cc(NC(=O)c2cncnc2Nc2ccc3c(ccn3Cc3cccc(F)c3)c2)cc(OC)c1
4. CN1/C(=C/C=C/c2n(Cc3ccc4ccccc4c3)c(Cl)c(Cl)[n+]2Cc2ccc3ccccc3c2)Oc2ccccc21
5. CC1(C)CCC[C@]23C(=O)O[C@](O)(C(=O)C4=C[C@@](C)(/C=C/CCCc5ccc6ccc7cccc8ccc5c6c78)CC[C@@]42O)[C@@H]13
6. CCN1CCN(c2cc(C(=O)Nc3cccc(Nc4ccc5c(OC)cccc5n4)c3)cc(C(F)(F)F)c2)CC1
7. Cc1[nH]c(C2CC(c3ccc(C(F)(F)F)c(F)c3)=NN2C)c(C)c1C(=O)NCC(F)(F)F (centres undefined)

1. 92.3
2. -21.3
3. 34.8
4. -94.1
5. -98.5
6. 6.06
7. 81.1

For the 2 compounds below, give their growth values.
1. CNC1=C(Br)C(=O)c2c(C(=O)OC)c(C)nc(C)c2C1=O
2. CC1=C(C(=O)c2ccccc2)C(c2ccc3c(c2)OCO3)NC(=S)N1 (centres undefined)

68.2
35.6

For the 2 compounds below, give their growth values.
1. O=C(/C=C/C12c3ccccc3C(c3ccccc31)C1C(=O)NC(=O)C12)c1cccs1 (centres undefined)
2. O=C1c2c(c3c4cccnc4[nH]c3c3ccc4ccccc4c23)C(=O)N1O

[52.2, 47]
